Where do these numbers come from? They come from a melting point compilation (Tetko et al.; mined from patent text by program, amines drawn as free bases though some values may be those of a salt).

measurement.kind: melting point

COCCOC(=O)C1Oc2ccccc2Cc2ccccc2O1
74 to 76 °C
CC1=NC(C)=C(c2ccc(Oc3ccc(S(C)=O)cc3)cc2)C(=O)C1Br (stereo unspecified)
262 to 263 °C
CCS(=O)(=O)c1cc(C(=O)Cl)c(OC)cc1Cl
115 to 117 °C
CC(=O)OCC(C)(C)c1cc(OS(C)(=O)=O)ccc1OC(C)=O
49 to 51 °C
Cc1c(C(=O)c2cnn(C)c2O)ccc2sc(=O)n(C)c12
192 to 195 °C

Now look at this one.
Inquiry: Dear colleague, I am looking for the recorded melting point of the following compound: COC(=O)c1ccc2oc(-c3cccs3)nc2c1
Reply text: 141 to 142 °C
